Field: pIC50. System: Receptor-type tyrosine-protein kinase FLT3 (Homo sapiens, UniProt P36888). Provenance: assorted publications.
pIC50: −log10 of the molar value.

These solved cases illustrate the format of a correct answer.
compound	pIC50
COc1ccc(C(=O)NC(=O)Nc2cccc3c2/C(=C/c2ccc[nH]2)C(=O)N3)cc1	7.24
CC(=O)N1CCO[C@H](COc2nc(-c3ccc(N(C)C)cc3)cc3nccnc23)C1	5.60
CCn1cc(Nc2ccc(Cc3c[nH]c4ncnc(OCCOC)c34)c(F)n2)cn1	> 6.00
CNC(=O)c1ccc(-c2cc([C@H]3CC[C@H](O)CC3)n3nc(N[C@@H](C)COC)ncc23)cn1	≥ 7.00
COc1ccc(CNc2ccc(C(=O)c3c[nH]c4ncncc34)cn2)cn1	≥ 5.00
CN1CCN(c2ccc3nc(-c4c(N[C@H]5C[C@H](O)C5)c5ccsc5[nH]c4=O)[nH]c3c2)CC1	≥ 7.30
CCc1nc2c(N)ncc(-c3cnn(-c4ncc(C#N)cn4)c3)c2nc1N[C@@H]1CC[C@H](O)C1	≥ 8.00
COCC(C)Nc1ncc2c(-c3ccnc(N4CCOC(C(C)(C)O)C4)c3)cc(C3CCC(O)CC3)n2n1 (stereo not shown)	6.00 to 7.00
CCOc1ccc(Nc2ncc(Cc3c[nH]c4ncc(C)cc34)cn2)cc1	> 7.00
COC[C@H](C)Nc1ncc2c(-c3cnn(C(C)(C)c4nnc([C@H]5CCCO5)o4)c3)cc([C@H]3CC[C@H](O)CC3)n2n1	5.00 to 6.00

Item CCc1nc2c(N)ncc(-c3cnn(C4CCN(CCO)CC4)c3)c2nc1NC1CCOCC1 was tested on Receptor-type tyrosine-protein kinase FLT3 (Homo sapiens, UniProt P36888); the reported pIC50 is ≥ 8.00

Item COCC(C)Nc1ncc2c(-c3cccc(C(C)N4CCCC4)c3)cc(C3CCC(O)CC3)n2n1 (stereo not shown) was tested on Receptor-type tyrosine-protein kinase FLT3 (Homo sapiens, UniProt P36888); the reported pIC50 is 6.00 to 7.00

Item COC[C@H](C)Nc1ncc2c(-c3cc(C)ccn3)cc([C@H]3CC[C@H](O)CC3)n2n1 was tested on Receptor-type tyrosine-protein kinase FLT3 (Homo sapiens, UniProt P36888); the reported pIC50 is 5.00 to 6.00

Item CC(C)(C)c1cc(NC(=O)Nc2ccc(C#Cc3ccc(OCCCN4CCOCC4)c(C(F)(F)F)c3)cc2)no1 was tested on Receptor-type tyrosine-protein kinase FLT3 (Homo sapiens, UniProt P36888); the reported pIC50 is 7.21

Item COC[C@H](C)Nc1ncc2c(-c3ccnc(N4CCNC(=O)C4)c3)cc([C@H]3CC[C@H](O)CC3)n2n1 was tested on Receptor-type tyrosine-protein kinase FLT3 (Homo sapiens, UniProt P36888); the reported pIC50 is 6.00 to 7.00
